Cited source for all entries: the supplement of paper PMC11208160

Assay: recombinant UMI read abundance after kanamycin selection (control-corrected) (log10(CPM+1)); higher = more efficient recombination; extreme values may be limits of the assay; sequences stand for … in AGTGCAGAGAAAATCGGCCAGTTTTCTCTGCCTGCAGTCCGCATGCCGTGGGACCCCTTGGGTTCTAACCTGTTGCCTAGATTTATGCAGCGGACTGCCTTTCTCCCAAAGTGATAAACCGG…AGGTTGGTTTCACT; site = the 11-nt donor;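 also: IS621 bridge recombinase in Escherichia coli cells against a fixed T5 target plasmid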
Decide using recombinant UMI read abundance (log10): a value greater than or equal to 1 is 1.0, a smaller one is 0.0.

Example entries and their recorded answers appear below.
* CCCTAGCCATGGACCGGTTTTCCCGGTAATCCGTATTTGAC (site CCCTAGCCTGA) | 0.0
* TTAGCTGCATGGACCGGTTTTCCCGGTAATCCGTATTTGTA (site TTAGCTGCTGA) | 0.0

Exercise: Is reported recombinant UMI read abundance (log10) greater than or equal to 1 here: ACACATCCATGGACCGGTTTTCCCGGTAATCCGTATTTGAC (site AAACATCCTGT)
Key: 0.0

Exercise: Is reported recombinant UMI read abundance (log10) greater than or equal to 1 here: GCGGAGTCATGGACCGGTTTTCCCGGTAATCCGTATTTGTT (site GCGGAGTCTAA)
Key: 1.0
